Where do the numbers come from? From patent US8207344B2.

experiment: Oral bioavailability in Beagle dogs; assay type: in vivo; details: dog, plasma, 1 mg/kg IV, 3 mg/kg oral gavage

[
  {
    "structureString": "CC(C)(F)CN1CCC(COc2ccc(C3=CCN(S(C)(=O)=O)CC3)nc2)CC1",
    "bioavailability": "90%"
  }
]

---

assay: Oral bioavailability in Sprague-Dawley rats; format: in vivo; settings: male, rat, plasma, 1 mg/kg IV, 3 mg/kg oral gavage

[
  {
    "structureString": "CS(=O)(=O)N1CC=C(c2ccc(OCC3CCN(CC4(C(F)(F)F)CC4)CC3)cc2)CC1",
    "bioavailability": "53%"
  }
]
